Can you tell me recombinant barcode read abundance (log10) for the items I'm about to list?
# assay_method_text: recombinant barcode read abundance after kanamycin selection (control-corrected) (log10(CPM+1)); higher = more efficient recombination; sequences stand for … in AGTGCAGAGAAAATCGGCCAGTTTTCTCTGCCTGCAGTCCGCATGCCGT…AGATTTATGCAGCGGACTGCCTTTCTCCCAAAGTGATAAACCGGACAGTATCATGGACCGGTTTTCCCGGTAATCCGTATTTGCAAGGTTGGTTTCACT; site = the 11-nt target;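 note: IS621 recombinase and bridge RNA in Escherichia coli cells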
Answer with a number only.

I would be grateful if you could share the reported recombinant barcode read abundance (log10) for CATGCGCCTTGGGTTCTAACCTGTTGCGG (site CATGTGTCTCC) .
0.0282

Check GTGCTCGCTTGGGTTCTAACCTGTTGCCT (site CTGCCCGCTAG) too.
0.0812

Check GCGCGTGCTTGGGTTCTAACCTGTTGCCT (site GCACGTGCTAG) too.
1.11

Check GCATCCTCTTGGGTTCTAACCTGTTGCCA (site AGGAGTACTAA) too.
0.146

Check AGGTAGACTTGGGTTCTAACCTGTTGCCA (site AGGCAGACTTG) too.
0.583

Check GATAGGCCTTGGGTTCTAACCTGTTGCTT (site GATAGGCCTAA) too.
0.371

Check AATTGTCCTTGGGTTCTAACCTGTTGCGT (site AATTGTCCTAC) too.
1.17

Check TGCGTAACTTGGGTTCTAACCTGTTGCCA (site GAACCTCCTAT) too.
0.0676

Check GTAGACCCTTGGGTTCTAACCTGTTGCCT (site GTAGACCCTAG) too.
2.5

Check ATGGCGCCTTGGGTTCTAACCTGTTGCCT (site ATGGCGCCTAG) too.
0.856

Check TGTCTAGCTTGGGTTCTAACCTGTTGCCT (site TGACTAGCTAG) too.
0.486

Check GGCACAGCTTGGGTTCTAACCTGTTGCCT (site GGCACTGCTAG) too.
0.0566

Check CGGGCCTCTTGGGTTCTAACCTGTTGCTA (site CGGGCCTCTCA) too.
0

Check ATAAACCCTTGGGTTCTAACCTGTTGCAT (site AGAATCCCTAT) too.
0.324

Check TACAAGACTTGGGTTCTAACCTGTTGCGT (site GGACCCTCTGT) too.
0.168

Check GTCGAGCCTTGGGTTCTAACCTGTTGCCT (site GTTCAGCCTAG) too.
0.157

Check GGAATTCCTTGGGTTCTAACCTGTTGCCT (site GGAATGCCTAG) too.
0.0669

Check TCTTGTTCTTGGGTTCTAACCTGTTGCCT (site CCTTGTTCTAG) too.
0.179

Check CATCCGCCTTGGGTTCTAACCTGTTGCCT (site CATCCGACTAG) too.
0.0105

Check GCCAACCCTTGGGTTCTAACCTGTTGCGT (site GCCAACCCTAT) too.
0.162

Check GAACCTACTTGGGTTCTAACCTGTTGCCA (site GAACCTACTTG) too.
1.16

Check GTGAGGTCTTGGGTTCTAACCTGTTGCTT (site GTGAGGTCTAA) too.
2.01

Check TGTGGAGCTTGGGTTCTAACCTGTTGCCG (site TGTCGAGCTCG) too.
0.469

Check GGTGCTCCTTGGGTTCTAACCTGTTGCAG (site GGTGCTCCTAT) too.
0.0917

Check TCGGAGGCTTGGGTTCTAACCTGTTGCTG (site TCGGAGGCTCA) too.
0.442

Check CGCTTGTCTTGGGTTCTAACCTGTTGCCG (site CTCTTGTCTTG) too.
0.0615
